Entries annotated with measured protein stability index
PROCEDURE TEXT: protein stability index of a GFP-peptide fusion (GPS, HEK-293T) (PSI 1-6); higher = more stable;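 also: 24-mer peptide tiles fused after GFP, lentivirally expressed, FACS-sorted into six equal bins by GFP/DsRed ratio, decoded by Illumina sequencing, PSI is the read-weighted mean bin number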
ASSAY SETUP: treatment: MLN4924 1 uM, 8 h; c terminus: a fixed tail appended

Some entries whose results are on file:
RESIDUES	protein stability index
LELHDYHDIIKHPMDLSTVKRKMD [BRD3]	3.98
SQSETSSAVSTPSPVTRTRSLSAC [DLC1]	4.87
SAGGSRTPAMSSSSSSRVLLRQQL [TFE3]	3.32
NRQCLCSAESMVEYGTCMCLVKGI [SPRY1]	3.83
STHELEKKELEENFEKLRLSLQDQ [MTUS2]	5.33
ESPDEMELDELLKEISRKRRSIRY [PTPRD]	3.4

// query protein stability index value for entry DSVLKGMQAASSKMVSAEISENRK [SDE2]
4.68

// query protein stability index value for entry YPIIFVYYLRKGKKINSNQLENEQ [SPANXN3]
2.14

// query protein stability index value for entry KGKKLYPVVSAVWGHCEVTMRYIN [SPSB4]
2.65

// query protein stability index value for entry TEIEEELKSLDKEISEAFTSTGFD [BCL2L13]
5.26

----------
PROCEDURE TEXT: protein stability index of a GFP-peptide fusion (GPS, HEK-293T) (PSI 1-6); higher = more stable
ASSAY SETUP: treatment: MLN4924 1 uM, 8 h; c terminus: a fixed tail appended
Entries annotated with measured protein stability index
Respond with the number and no other words.

Some entries whose results are on file:
RESIDUES	RECORDED MEASUREMENT
IKSKKKLLQIIDTTLLKCYLHTNV [VPS39]	2.86
DAHFCAVCSDYASGYHYGVWSCEG [ESR2]	2.49
PLFSEDVVLKLFLSFSGSDVQNKL [SNX8]	2.31
LPRKRQSLRSSSSKLAQLTLEQIL [INTS3]	2.44
GHLRGPEIRDWRGPQLEGEKDWGL [ZSWIM9]	3.52
DHWNNEKERILLVTDKTLLICKYD [TPRG1]	2.47

// query protein stability index value for entry LHCWLNAFAEMLRFGDRMFYKDWW [SOAT1]
2.77

// query protein stability index value for entry CGACLTQLFFFHLFVGVDCFLLTA [OR3A1]
3.02

// query protein stability index value for entry SVPIDLQKVDQFDPFTVPTISFIC [PRIM1]
2.48

// query protein stability index value for entry SKYVKLNVGGALYYTTMQTLTKQD [KCTD10]
2.44

// query protein stability index value for entry RIVHLQETCDLGKIKPEARRYLEK [NLN]
3.66

// query protein stability index value for entry TSTPEDKESGQEGVDSMAEEGTSD [SMARCE1]
5.51

// query protein stability index value for entry PQVPQPPSPAAVPRPPSNPPARGT [TRAF3IP2]
5.17

// query protein stability index value for entry ELEDKDGLQSAQPTEGQGSLLTNW [MYBL2]
5.35

// query protein stability index value for entry LQSTYATPVDMWSVGCIFAEMFRR [CDK4]
2.37

// query protein stability index value for entry RLLLDSGAQVNMPADSFESPLTLA [ANKRD17]
3.46

// query protein stability index value for entry QFLLELLSDKSCQSFISWTGDGWE [ETS2]
1.85

// query protein stability index value for entry NQRMKSKRWQKNNWPKNSNGVTQK [NANOGP8]
4.2

// query protein stability index value for entry GSQLEDQALRGLEGYTWRVAQLED [ZSWIM9]
4.25

// query protein stability index value for entry VEKLKQMQEFFGLKVTGKPDAETL [MMP1]
3.83

// query protein stability index value for entry LQRLGELQSELAGVADFSATYLRC [INTS4]
2.93

// query protein stability index value for entry LTNNVDLDNTKKKMEIYQKENKDV [MNAT1]
5.31

Data credit: the supplement of paper PMC10567573
